Below, each entry is listed with its recorded IC50.
Target: UniProt Q9UM07
Sequence (Q9UM07 whole entry): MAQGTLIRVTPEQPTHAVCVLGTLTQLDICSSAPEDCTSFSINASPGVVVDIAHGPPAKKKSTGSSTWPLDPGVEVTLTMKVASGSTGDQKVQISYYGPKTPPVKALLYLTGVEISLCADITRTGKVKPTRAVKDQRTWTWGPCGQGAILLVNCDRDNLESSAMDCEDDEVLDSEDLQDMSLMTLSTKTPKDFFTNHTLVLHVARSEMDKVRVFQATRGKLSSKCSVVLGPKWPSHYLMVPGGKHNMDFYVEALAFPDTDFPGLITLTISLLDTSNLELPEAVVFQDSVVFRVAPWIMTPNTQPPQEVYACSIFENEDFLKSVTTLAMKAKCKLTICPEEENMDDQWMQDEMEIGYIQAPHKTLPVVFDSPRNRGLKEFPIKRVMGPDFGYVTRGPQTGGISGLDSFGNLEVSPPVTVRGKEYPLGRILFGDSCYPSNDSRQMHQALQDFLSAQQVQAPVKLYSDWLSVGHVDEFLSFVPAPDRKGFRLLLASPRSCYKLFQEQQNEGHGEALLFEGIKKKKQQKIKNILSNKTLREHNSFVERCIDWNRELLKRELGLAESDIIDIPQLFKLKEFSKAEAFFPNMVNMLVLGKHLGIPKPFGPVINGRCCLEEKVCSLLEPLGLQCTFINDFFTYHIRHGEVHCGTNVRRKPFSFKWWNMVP
Assay: RFMS1 assay (RapidFire mass spectrometry, BAEE substrate)
Type: biochemical
Settings: 5 nM hPAD4, 250 μM BAEE, 30 min preincubation at 37° C., 90 min reaction; read-out: RFMS 1 IC50

>  <SMI>
Cn1c(-c2cc3cccc(OCCc4cnoc4)c3n2CC2CC2)nc2cc3c(cc21)CCN(C[C@H](N)CF)C3=O

>  <IC50>
≤ 0.01 µM

$$$$
>  <SMI>
C[C@H](COc1cccc2cc(-c3nc4cc5c(c(F)c4n3C)CCN(C[C@H](N)CF)C5=O)n(CC3CC3)c12)n1cnc(F)c1

>  <IC50>
≤ 0.01 µM

$$$$
>  <SMI>
Cc1cc(N2CCCS2(=O)=O)ccc1-c1ccc2cc(-c3nc4cc5c(cc4n3C)CCN(C[C@H](N)CF)C5=O)n(CC3CC3)c2n1

>  <IC50>
0.011 to 0.1 µM

$$$$
>  <SMI>
C[C@H](COc1cccc2cc(-c3nc4cc5c(cc4n3C)CCN(C[C@H](N)CF)C5=O)n(CC3CC3)c12)n1ccnc1

>  <IC50>
≤ 0.01 µM

$$$$
>  <SMI>
C[C@H](COc1cccc2cc(-c3nc4cc5c(c(F)c4n3C)CCN(C[C@H]3COCCN3)C5=O)n(CC3CC3)c12)n1cnc(F)c1

>  <IC50>
≤ 0.01 µM

$$$$
>  <SMI>
Cc1cc(N2CC(C)(C)OC2=O)ccc1-c1ccc2cc(-c3nc4cc5c(cc4n3C)CCN(C[C@H]3COCCN3)C5=O)n(CC3CC3)c2n1

>  <IC50>
0.011 to 0.1 µM

$$$$
>  <SMI>
CC[C@@H](N)CN1CCc2cc3c(cc2C1=O)nc(-c1cc2ccccc2n1CC1CC1)n3C

>  <IC50>
0.501 to 1 µM

$$$$
>  <SMI>
C[C@H](COc1cccc2cc(-c3nc4cc5c(cc4n3C)CCN(C[C@@H](C)N)C5=O)n(CC3CC3)c12)n1cnc(F)c1

>  <IC50>
≤ 0.01 µM

$$$$
>  <SMI>
COCCn1c(-c2nc3cc4c(cc3n2C)CCN(C[C@H](N)CF)C4=O)cc2cccc(OC)c21

>  <IC50>
0.101 to 0.5 µM

$$$$
>  <SMI>
Cn1c(-c2cc3ccccc3n2CC2CC2)nc2cc3c(cc21)CCN(C[C@H](N)C1CC1)C3=O

>  <IC50>
0.101 to 0.5 µM

$$$$
>  <SMI>
Cn1c(-c2cc3cccc(OCCc4c[nH]nn4)c3n2CC2CC2)nc2cc3c(cc21)CCN(C[C@H](N)CF)C3=O

>  <IC50>
≤ 0.01 µM

$$$$
>  <SMI>
COc1cccc2cc(-c3nc4cc5c(cc4n3C)CCN(C[C@H](N)CF)C5=O)n(Cc3nc(C)co3)c12

>  <IC50>
0.011 to 0.1 µM

$$$$
>  <SMI>
COc1cccc2cc(-c3nc4cc5c(cc4n3C)CCN(C[C@H](N)CF)C5=O)n(Cc3cc(N)no3)c12

>  <IC50>
0.011 to 0.1 µM

$$$$
>  <SMI>
Cn1c(-c2cc3cccc(OCCn4cnnn4)c3n2CC2CC2)nc2cc3c(cc21)CCN(C[C@H](N)CF)C3=O

>  <IC50>
≤ 0.01 µM

$$$$
